From: paper PMC8596838

- assay system: GBA (Danio rerio, UniProt E7EZM1)
- Sequence (E7EZM1 entry or part of it): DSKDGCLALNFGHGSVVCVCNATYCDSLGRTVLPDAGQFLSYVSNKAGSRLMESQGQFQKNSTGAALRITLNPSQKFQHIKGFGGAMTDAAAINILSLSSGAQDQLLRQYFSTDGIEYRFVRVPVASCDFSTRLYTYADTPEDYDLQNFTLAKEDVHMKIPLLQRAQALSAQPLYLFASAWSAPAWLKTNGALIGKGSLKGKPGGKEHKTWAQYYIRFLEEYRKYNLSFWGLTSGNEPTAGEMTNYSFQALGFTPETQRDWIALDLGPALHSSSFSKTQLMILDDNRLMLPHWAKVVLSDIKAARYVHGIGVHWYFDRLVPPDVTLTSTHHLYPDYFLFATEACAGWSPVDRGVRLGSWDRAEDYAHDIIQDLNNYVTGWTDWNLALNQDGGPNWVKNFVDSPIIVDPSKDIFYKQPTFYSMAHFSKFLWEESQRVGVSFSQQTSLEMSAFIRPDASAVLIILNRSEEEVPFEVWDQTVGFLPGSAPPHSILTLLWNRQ
readout label: IC50 (µM)
Record the value in µM, omitting the unit from your answer.

Lookup: IC50 / GBA (Danio rerio, UniProt E7EZM1) / O[C@@H]1[C@@H](O)[C@H](O)C[C@H]2O[C@@H]12 [compound 1, xylo‐cyclophellitol]
3.01

---
Lookup: IC50 / GBA (Danio rerio, UniProt E7EZM1) / O[C@@H]1[C@@H](O)[C@H](O)C[C@H]2N[C@@H]12 [compound 2, β‐D‐xylo‐Cyclophellitol aziridine]
6.99

----------
Below is a list of entries, each paired with its recorded (Ratio) GBA3/GBA value.
- assay system: GBA3 (Homo sapiens)
- Construct: expressed in transfected cells; host or cells: HEK293T (GBA/GBA2 KO background for the fluorogenic assay; endogenous-GBA background with GBA2 and GBA3 overexpressed for ABPP and intact-cell assays)
- Sequence (Q9H227 whole entry): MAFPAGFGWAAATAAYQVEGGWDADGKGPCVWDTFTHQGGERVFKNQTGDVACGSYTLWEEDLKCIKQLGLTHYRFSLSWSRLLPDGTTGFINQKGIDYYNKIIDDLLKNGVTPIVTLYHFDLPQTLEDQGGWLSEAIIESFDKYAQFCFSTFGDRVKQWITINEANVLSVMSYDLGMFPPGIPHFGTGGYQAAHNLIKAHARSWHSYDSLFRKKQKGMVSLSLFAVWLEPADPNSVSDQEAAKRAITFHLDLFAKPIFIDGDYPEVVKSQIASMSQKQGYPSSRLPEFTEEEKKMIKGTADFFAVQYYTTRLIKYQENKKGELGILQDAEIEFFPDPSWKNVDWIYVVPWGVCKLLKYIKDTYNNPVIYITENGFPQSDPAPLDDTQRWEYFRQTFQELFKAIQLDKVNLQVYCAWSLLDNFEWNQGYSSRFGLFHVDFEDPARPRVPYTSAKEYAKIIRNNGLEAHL
- test summary: Fluorogenic substrate enzymatic assay, lysate of GBA/GBA2 KO HEK293T cells overexpressing GBA3
- Assay type: biochemical
- settings: IC50 ratio, in vitro, 30 min

Before answering, review these 2 worked examples.
Tell me the measured (Ratio) GBA3/GBA of `O[C@@H]1[C@@H](O)[C@H](O)C[C@H]2N[C@@H]12` , please.
>35

Tell me the measured (Ratio) GBA3/GBA of `O[C@@H]1[C@@H](O)[C@H](O)C[C@H]2O[C@@H]12` , please.
>19

Okay, now this compound:
Tell me the measured (Ratio) GBA3/GBA of O[C@H]1[C@H](O)[C@@H](O)[C@@H]2O[C@@H]2[C@@H]1O [compound 13, Conduritol B‐epoxide, reference compound] , please.
>14
